The following compounds are shown together with reported melting point values.

Study these solved cases before continuing.
O=C(Nc1ccc(Cl)nc1)N1CCc2ccccc2CC1 [Example 7]; 170 to 172 °C
Cc1cc(Oc2ccc(NC(=O)N3CCc4ccccc4CC3)cn2)cc(C)c1Cl [Example 16]; 208 to 209 °C
Cc1ncccc1Oc1ccc(NC(=O)N2CCc3ccccc3CC2)cn1 [Example 1]; 171 to 173 °C

## Task Complete the entry with melting point for O=C(NC1CN2CCC1CC2)N1CCc2ccccc2CC1 (centres unmarked)
## Result > 120 °C (dec.)

## Task Complete the entry with melting point for `O=C(N[C@@H]1CN2CCC1CC2)N1CCc2ccccc2CC1`
## Result 128 to 132 °C

## Task Complete the entry with melting point for O=C(Nc1ccc(Oc2ccc(Cl)cc2Cl)nc1)N1CCc2ccccc2CC1 [Example 15]
## Result 154 to 155 °C

## Task Complete the entry with melting point for Cc1cc(Cl)ccc1Oc1ccc(NC(=O)N2CCc3ccccc3CC2)cn1 [Example 13]
## Result 151 to 153 °C

## Task Complete the entry with melting point for CC(C)Oc1ccccc1Oc1ccc(NC(=O)N2CCc3ccccc3CC2)cn1 [Example 12]
## Result 149 to 152 °C

## Task Complete the entry with melting point for O=C(Nc1ccc(Oc2ccc(Cl)cc2)nc1)N1CCc2ccccc2CC1 [Example 10]
## Result 135 to 137 °C

## Task Complete the entry with melting point for O=C(Nc1ccc(Oc2ccccc2F)nc1)N1CCc2ccccc2CC1 [Example 11]
## Result 170 to 172 °C

## Task Complete the entry with melting point for COc1ccc(Oc2ccc(NC(=O)N3CCc4ccccc4CC3)cn2)cc1 [Example 9]
## Result 156 to 157 °C

Measured values drawn from patent US6861420B2 for this set.
